# System: intracellular proteome of ENR+CD and ENR organoids
# test-details: LC-MS/MS TMT proteomics of ENR+CD versus ENR organoids
# Format: cell-based, C57BL/6 mice
# conditions-used: protein abundance ratio ENR+CD versus ENR organoids, sample pair M1-2; LC-MS/MS TMT proteomics
# Text: Because PCs are highly secretory, protein-rich cells, Applicants sought to assess the total intracellular proteome between conditions through liquid chromatography mass spectrometry (LC-MS/MS)-based proteomics. Applicants quantified relative protein abundance across eight samples using isobaric mass tag labeling from four ENR and four ENR+CD samples (M1-1 through M2-2, first digit denotes biological donor, second digit denotes technical replicate) (FIG. 3A). […]
measured-quantity: M1-2 Log2 Median Normalized
Number only, please.

* Q9D3P9 (protein, UniProt Q9D3P9 1-169, looked up, full-length) MRGMNLQLVCLTLLAFSSWSLCSDSEEDVRALEADLLTNMHTSKISKASPPSWKMTLLNVCSLINNVNSPAEEAGDMHDDDLVGKRKLPLVLDGFSLEAMLTIFQLQKICRSRAFQHWEIIQEDILDNVNDKNEKEEVIKRKIPYILKRQLYENKPRRPYILKRGSYYY | 0.439

The record that follows has no M1-2 Log2 Median Normalized shown yet.
Entry under review: Q9JIB0 (protein, UniProt Q9JIB0 1-185, looked up, full-length) MEPNRNCPLFGGAFSAILPTGAIDVSDLRPVPDNQEVFCHPVTDQSLIIELLELQAHVQGEAAARYHFEDVGRVQGARAVHVLSVQPLCLENLSLRGCCQDAWSLSGKQQVAKENQQVAKDVTLHQALLRLPQYQTDLLLTFNQPPCHSRSLGPENLSCPPWSLSNFEQLVTSLTLHDPNLFGPQ . Reported M1-2 Log2 Median Normalized?
−1.555
